EXPERIMENT: aqueous kinetic solubility
STUDY_CONDITIONS: aqueous kinetic solubility
MEASUREMENT_KIND: Sol.

Example entries begin here.
CC1=C(C(=O)Nc2ccc(Br)cc2)C(c2ccccc2Cl)N=C(Nc2nc3ccccc3o2)N1 (stereo not shown) :: <1 µg/mL
COc1ccccc1CNC(=O)C1=C(C)NC(Nc2nc3ccccc3o2)=NC1c1ccccc1Cl (stereo not shown) :: <1 µg/mL
COC(=O)c1ccc(NC(=O)C2=C(C)NC(Nc3nc4ccccc4o3)=NC2c2ccccc2Cl)cc1 (stereo not shown) :: <1 µg/mL

Now take the following compound into account.
Q. Please look up its Sol.: O=C1NCCC2=C1C(c1ccccc1Cl)N=C(Nc1nc3ccccc3o1)N2 (stereo not shown)
A. <1 µg/mL

---

STUDY_TARGET: recombinant human GALK1 (Homo sapiens, UniProt P51570)
Sequence (P51570 whole entry): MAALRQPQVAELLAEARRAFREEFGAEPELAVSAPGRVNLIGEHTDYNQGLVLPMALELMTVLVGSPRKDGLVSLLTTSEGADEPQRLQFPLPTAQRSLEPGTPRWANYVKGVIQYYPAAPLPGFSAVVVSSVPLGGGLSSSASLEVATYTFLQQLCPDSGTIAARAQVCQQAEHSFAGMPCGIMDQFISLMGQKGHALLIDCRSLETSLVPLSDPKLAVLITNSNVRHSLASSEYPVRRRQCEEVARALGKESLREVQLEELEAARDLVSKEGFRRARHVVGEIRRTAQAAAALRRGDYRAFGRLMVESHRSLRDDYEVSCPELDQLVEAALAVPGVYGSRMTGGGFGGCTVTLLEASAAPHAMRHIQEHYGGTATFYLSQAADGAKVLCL
EXPERIMENT: hGALK1 biochemical activity assay (Kinase-Glo Plus, ATP depletion)
STUDY_CONDITIONS: Tables 2-15; 35 μM ATP, 100 μM galactose, 1 h; bracketed figure after some values (e.g. −1.2) is undefined and not reported; read-out: hGALK IC50
# pIC50 per record follows
Remember the convention: pIC50 equals -log10 of concentration in molar.

For orientation, consider the following solved cases.
CC1=C(C(=O)Nc2cc(C(=O)O)ccn2)C(c2ccc(N3CCCCC3)cc2Cl)N=C(Nc2nc3ccc(F)cc3o2)N1 (stereo not drawn) :: 5.91
CC1=C(C(=O)Nc2ccc(-c3nnn[nH]3)cc2)C(c2ccccc2Cl)N=C(Nc2nc3ccccc3o2)N1 (stereo not drawn) :: 5.31
CC1=C(C(=O)Nc2ccc(N(C)C)cc2)C(c2ccccc2Cl)N=C(Nc2nc3ccccc3o2)N1 (stereo not drawn) :: 5.11
CC1=C(C(=O)Nc2cc(C(=O)O)ccn2)C(c2ccccc2Cl)N=C(Nc2nc3ccccc3o2)N1 (racemic) :: 5.97
CC1=C(C(=O)NCc2ccccn2)C(c2ccccc2Cl)N=C(Nc2nc3ccccc3o2)N1 (stereo not drawn) :: 5.06

Q. Which measured pIC50 value corresponds to COc1cccc(C2N=C(Nc3nc4ccc(F)cc4o3)NC(C)=C2C(=O)Nc2cc(C(=O)O)ccn2)c1Cl (stereo not drawn) ?
A. 5.16

---

Reported IC50 is given for each of the following molecules.
STUDY_TARGET: recombinant human GALK1 (Homo sapiens, UniProt P51570)
EXPERIMENT: hGALK1 biochemical activity assay (Kinase-Glo Plus, ATP depletion)
STUDY_CONDITIONS: recombinant human GALK1, Kinase-Glo Plus ATP depletion; bracketed figure in the cell, e.g. (−1.2), is not defined in the text shown; read-out: hGALK
Expressed in µM, but write only the number.

CC1=C(C(=O)Nc2nncs2)C(c2c(Br)cnn2C)N=C(Nc2nc3ccccc3o2)N1 (stereo not drawn) :: 21.7

Q. Hi! What's the reported IC50 for CC1=C(C(=O)Nc2nncs2)C(c2nn(C)cc2Cl)N=C(Nc2nc3ccccc3o2)N1 (stereo not drawn) on recombinant human GALK1 (Homo sapiens, UniProt P51570)?
A. 7.69

Q. Similarly, CC1=C(C(=O)Nc2cc(C(=O)O)ccn2)C(c2ccccc2Cl)N=C(Nc2nc3ccccc3o2)N1C(=O)c1ccccc1 (stereo not drawn) ?
A. 3.43

---

EXPERIMENT: aqueous kinetic solubility
STUDY_CONDITIONS: aqueous kinetic solubility
MEASUREMENT_KIND: Sol.

Answered cases to consult:
CC1=C(C(=O)Nc2nncs2)C(c2cc(Cl)ccc2Cl)N=C(Nc2nc3ccccc3o2)N1 (stereo not drawn) [Compound 270] :: <1 µg/mL
O/N=C1\CCCC2=C1C(c1ccccc1Cl)N=C(Nc1nc3ccccc3o1)N2 (stereo not drawn) [Compound 244] :: <1 µg/mL

Q. Item CC(C)CC1=C(C(=O)Nc2nncs2)C(c2ccccc2Cl)N=C(Nc2nc3ccccc3o2)N1 (stereo not drawn) [Compound 248] has what recorded Sol.?
A. <1 µg/mL

Q. Try CC1=C(C(=O)Nc2cccc(Cl)c2)C(c2ccccc2Cl)N=C(Nc2nc3ccccc3o2)N1 (stereo not drawn) [Compound 154] next.
A. <1 µg/mL

Measured values drawn from patent US20230158025A1 for this set.
